Tested on: CCRF-CEM
PROCEDURE TEXT: NCI one-dose SRB growth inhibition
Format: cell-based
CONDITION NOTES: Homo sapiens, Leukemia, 48 h, read-out: GI% CCRF-CEM
Below is a list of entries, each paired with its recorded inhibition at 10 µM value.

{"COMPOUND": "CCOC(=O)c1ccc(NC(=O)Nc2ccc(-c3ccc(F)cc3)nc2C)cc1 [Compound 5c]", "inhibition at 10 µM": "< 10%"}
{"COMPOUND": "Cc1nc(-c2cccs2)ccc1NC(=O)Nc1ccc(Cl)cc1 [Compound 5i]", "inhibition at 10 µM": "< 10%"}
{"COMPOUND": "Cc1nc(-c2ccc(F)cc2)ccc1NC(=O)Nc1ccc2c(c1)OCO2 [Compound 5d]", "inhibition at 10 µM": "< 10%"}
